TEST SYSTEM: TF(1-4)-ZIF (TFIIIA F1-4 fused to Zif268) (artificial)
Sequence (chain, as listed by the source): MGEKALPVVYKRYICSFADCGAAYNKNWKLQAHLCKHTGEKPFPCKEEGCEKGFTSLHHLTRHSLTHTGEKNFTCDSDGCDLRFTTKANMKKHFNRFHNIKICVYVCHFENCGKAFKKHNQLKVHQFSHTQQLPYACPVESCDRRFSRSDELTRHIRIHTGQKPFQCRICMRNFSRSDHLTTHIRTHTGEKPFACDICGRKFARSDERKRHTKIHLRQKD
METHOD NOTES: EMSA; apparent Kd; table prints gap as X9
ASSAY CONDITIONS: label: 32P
MEASUREMENT LABEL: Kd (nM)
The response must be a number in nM with no trailing unit.

Query :: Give its Kd value. Item: TF9Z (bsE1) (dsDNA) DNA 1: GCGTGGGCGTTAGTACCTGGATGGGAGAC DNA 2: GTCTCCCATCCAGGTACTAACGCCCACGC
Result :: 0.015
